- method_summary: S16 Schwann cell PMP22 intronic element beta-lactamase assay (AID 624044);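 further: 0% = DMSO and -100% = potassium clavulanate positive control; nearly all actives have a fitted effect of over 15% in size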
- protocol_conditions: S16 rat Schwann cells, PMP22 element beta-lactamase FRET, 24 h; at 38.3 µM (top of the series) unless noted
- Description: Description: Charcot-Marie-Tooth-Association [CMTA] National Center for Advancing Translational Sciences [NCATS] […] S16 Schwann cell PMP22 intronic element beta-lactamase assay The beta-Lac-expressing S16 cells were seeded in black clear-bottom 1536 well plates at between 500-750 cells/6uL in DMEM medium containing 10% FBS, w/o phenol red. […] The concentration-effect curves were then classified based on curve quality (r2), response magnitude and degree of measured activity.
Results filed as inconclusive are left out.
measured_parameter: ratio activity, negative = inhibition (%)
Answer in %, number only, no unit symbol.

INSERT INTO assay_data (compound, measured_parameter, data_value) VALUES
  ('O=C1CCC(c2ccccc2)(C2CCN(Cc3ccccc3)CC2)C(=O)N1 (stereo not given)', 'ratio activity, negative = inhibition', 1.84);

For reference, reported ratio activity, negative = inhibition for `CN[C@@H]1[C@H](O[C@H]2[C@H](O[C@H]3[C@H](O)[C@@H](O)[C@H](N=C(N)N)[C@@H](O)[C@@H]3N=C(N)N)O[C@@H](C)[C@]2(O)C=O)O[C@@H](CO)[C@H](O)[C@H]1O` stands at 0

For reference, reported ratio activity, negative = inhibition for OC1OC[C@@H](O)[C@H](O)[C@@H]1O (stereo not given in full) stands at 0.472

For reference, reported ratio activity, negative = inhibition for `FC(F)(F)C(F)(F)C(F)(F)C(F)(F)C(F)(F)F` stands at 0

For reference, reported ratio activity, negative = inhibition for `CC(=O)c1ccc2c(c1)N(CCCN1CCN(CCO)CC1)c1ccccc1S2` stands at -15.1

* * *

- target_or_system: Nuclear receptor subfamily 1 group I member 2 (Homo sapiens) (UniProt O75469)
- Sequence (O75469 whole entry, looked up): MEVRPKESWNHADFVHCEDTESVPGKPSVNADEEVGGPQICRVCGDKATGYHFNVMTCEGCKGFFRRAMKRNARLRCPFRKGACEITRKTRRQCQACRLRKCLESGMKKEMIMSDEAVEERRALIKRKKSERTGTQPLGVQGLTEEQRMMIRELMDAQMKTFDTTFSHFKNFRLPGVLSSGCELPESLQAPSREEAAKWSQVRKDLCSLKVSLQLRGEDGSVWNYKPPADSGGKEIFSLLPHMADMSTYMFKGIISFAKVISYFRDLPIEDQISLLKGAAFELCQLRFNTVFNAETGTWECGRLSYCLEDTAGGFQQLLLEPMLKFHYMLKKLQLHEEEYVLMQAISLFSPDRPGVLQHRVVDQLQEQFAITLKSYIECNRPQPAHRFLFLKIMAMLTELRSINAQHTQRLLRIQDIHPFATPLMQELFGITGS
- method_summary: Dual reporter qHTS for agonist of Pregnane X Receptor (hPXR) against the NCATS DSHEA and TCM libraries: Luminescence readout (AID 1920059); on activation: 0% is about no effect
- protocol_conditions: hPXR dual reporter cells, luciferase luminescence agonist; series mostly up to 40 µM
Inconclusive results are not listed. Active and inactive are the calls of the source. Calls come from the whole dose curve; as a rule, active = well fitted activation curve with a large enough effect; inconclusive = small, poorly fitted or top-dose-only effect; inactive = flat fitted curve, though single readings scatter.
Tick one outcome: active, inactive

A selection of reference data follows.
INSERT INTO measurements (molecule, target_or_system, class_assignment) VALUES
  ('CCCCCCCCCCCC(=O)OCC(O)CO (centres undefined)', 'Nuclear receptor subfamily 1 group I member 2 (Homo sapiens) (UniProt O75469)', 'inactive'),
  ('CC/C=C\C/C=C\C/C=C\C/C=C\C/C=C\C/C=C\CCC(=O)O', 'Nuclear receptor subfamily 1 group I member 2 (Homo sapiens) (UniProt O75469)', 'inactive'),
  ('CC/C=C\C/C=C\C/C=C\C/C=C\C/C=C\CCCC(=O)O', 'Nuclear receptor subfamily 1 group I member 2 (Homo sapiens) (UniProt O75469)', 'inactive'),
  ('CC(C)=CCC/C(C)=C/C=C/C(C)=C/C=C/C(C)=C/C=C/C=C(C)/C=C/C=C(C)/C=C/C=C(\C)CCC=C(C)C', 'Nuclear receptor subfamily 1 group I member 2 (Homo sapiens) (UniProt O75469)', 'inactive'),
  ('COC1=C(OC)C(=O)C(C/C=C(\C)CC/C=C(\C)CC/C=C(\C)CC/C=C(\C)CC/C=C(\C)CC/C=C(\C)CC/C=C(\C)CC/C=C(\C)CC/C=C(\C)CCC=C(C)C)=C(C)C1=O', 'Nuclear receptor subfamily 1 group I member 2 (Homo sapiens) (UniProt O75469)', 'inactive'),
  ('O=C(O)/C=C/c1ccccc1', 'Nuclear receptor subfamily 1 group I member 2 (Homo sapiens) (UniProt O75469)', 'inactive'),
  ('CC[C@H](CC[C@@H](C)[C@H]1CC[C@H]2[C@@H]3CC=C4C[C@@H](O)CC[C@]4(C)[C@H]3CC[C@]12C)C(C)C', 'Nuclear receptor subfamily 1 group I member 2 (Homo sapiens) (UniProt O75469)', 'inactive'),
  ('Oc1ccc(/C=C/c2cc(O)cc(O)c2)cc1', 'Nuclear receptor subfamily 1 group I member 2 (Homo sapiens) (UniProt O75469)', 'active');

Query :: Recorded test outcome, item `C=C1CC[C@H](O)C/C1=C\C=C1/CCC[C@]2(C)[C@@H]([C@H](C)CCCC(C)C)CC[C@@H]12`
Result :: active
